Measured IC50 of individual entries
Target: hP2X2/3H (Homo sapiens, UniProt P56373+Q9UBL9)
Sequence (P56373 whole entry): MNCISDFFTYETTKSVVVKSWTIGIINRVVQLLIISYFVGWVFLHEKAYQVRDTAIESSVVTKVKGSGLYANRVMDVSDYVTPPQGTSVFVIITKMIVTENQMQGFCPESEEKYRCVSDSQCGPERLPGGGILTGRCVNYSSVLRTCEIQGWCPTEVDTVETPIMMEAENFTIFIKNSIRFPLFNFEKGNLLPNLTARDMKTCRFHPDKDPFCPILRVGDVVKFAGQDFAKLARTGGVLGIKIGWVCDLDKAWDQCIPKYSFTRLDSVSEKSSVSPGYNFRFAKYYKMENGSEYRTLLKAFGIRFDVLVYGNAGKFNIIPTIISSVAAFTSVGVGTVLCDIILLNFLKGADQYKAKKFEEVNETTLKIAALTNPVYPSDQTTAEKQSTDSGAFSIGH
Sequence (Q9UBL9 whole entry): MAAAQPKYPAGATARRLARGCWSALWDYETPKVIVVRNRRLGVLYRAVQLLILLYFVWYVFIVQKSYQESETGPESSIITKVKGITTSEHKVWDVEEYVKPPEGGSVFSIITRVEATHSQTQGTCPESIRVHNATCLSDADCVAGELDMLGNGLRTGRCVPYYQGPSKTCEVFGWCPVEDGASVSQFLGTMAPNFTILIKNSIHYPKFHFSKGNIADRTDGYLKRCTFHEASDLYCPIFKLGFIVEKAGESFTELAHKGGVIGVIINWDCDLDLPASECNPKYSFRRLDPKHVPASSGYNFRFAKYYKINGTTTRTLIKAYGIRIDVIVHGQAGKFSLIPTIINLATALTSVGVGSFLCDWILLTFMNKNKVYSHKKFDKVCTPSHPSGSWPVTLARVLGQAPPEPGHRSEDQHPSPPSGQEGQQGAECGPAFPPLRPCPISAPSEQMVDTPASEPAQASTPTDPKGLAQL
Assay: Calcium uptake assay (Ca influx), P2X antagonist assay, P2X2/3 heteromer
Conditions: inhibition of agonist-induced calcium influx

Examples with their reported IC50 follow.
{"sample.smiles": "COc1ccc(-c2cc(C(=O)NCc3ccc(C)nc3)cc(-c3ccc(C)cc3)c2)cc1", "IC50": "9200 nM"}
{"sample.smiles": "Cc1ccc(-c2cc(C(=O)NCc3ccc(C)nc3)cc(N3CCNCC3=O)c2)c(C#N)c1", "IC50": "1060 nM"}
{"sample.smiles": "Cc1ccc(-c2cc(C(=O)N[C@@H](C)CO)cc(-c3cc(C(F)(F)F)ccc3C#N)c2)nc1", "IC50": "444 nM"}

Consider now this further molecule.
Identify the measured IC50 of COc1ncc(-c2cc(C(=O)NCc3ccc(C)nc3)cc(-c3ccc(C)cc3)c2)cn1 for hP2X2/3H (Homo sapiens, UniProt P56373+Q9UBL9). 291 nM
